Data credit: the supplement of paper PMC6757056

B1: library; a variant is named by its letters at N, in order (parent)
chain: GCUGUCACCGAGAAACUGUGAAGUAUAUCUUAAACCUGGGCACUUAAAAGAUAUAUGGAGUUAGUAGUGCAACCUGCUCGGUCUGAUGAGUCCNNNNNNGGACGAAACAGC

Variants of: B1
Procedure text: FACS-Seq fitted mean relative fluorescence mCherry/BFP without ligand (log10 relative fluorescence); HEK293T; ligand: cyclic di-GMP (c-di-GMP-II aptamer); higher = higher reporter protein expression
Condition: ligand present: no
Value kind: FACS-Seq fitted mean (log10)
Would you mind answering with just the numeric figure?

• GUCUGU = -0.165
• GUUUUU = -0.978
• CGAAUU = -0.504
• GCACGA = -0.471
• AAAGUU = -0.298

Name the reported FACS-Seq fitted mean (log10) value associated with the variant CUCAUA
-0.575

Which FACS-Seq fitted mean (log10) is reported for this variant? GUAUAG
-1.32
